Each recorded value in this set is attributed to patent US12291519B2.

Target: human Gal-1 (hGal-1)
Sequence (P09382 2-135 limits assumed): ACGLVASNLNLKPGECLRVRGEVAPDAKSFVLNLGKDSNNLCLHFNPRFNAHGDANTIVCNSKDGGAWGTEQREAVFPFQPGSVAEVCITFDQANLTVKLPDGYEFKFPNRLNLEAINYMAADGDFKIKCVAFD
Test: Competitive binding assay: biotinylated hGal-1 binding to microplate-adsorbed asialofetuin (ASF)
Conditions: Activity on hGal-1; binding of biotinylated hGal-1 to ASF-coated plates; mean values
What IC50 was measured for each of the following?
// units = nM; emit number, no label

Data request: Output IC50 of CO[C@@H]1[C@@H](n2cc(-c3cc(F)cc(Cl)c3)nn2)[C@@H](O)[C@@H](CO)O[C@H]1C(=O)N(c1cc(F)cc(Br)c1)[C@H]1CCCC[C@@H]1O
Data returned: 323

Data request: For the compound CO[C@@H]1[C@@H](n2cc(-c3cc(F)cc(Cl)c3)nn2)[C@@H](O)[C@@H](CO)O[C@H]1C(=O)N(c1cc(F)cc(C#N)c1)[C@H]1CCCC[C@@H]1O , give its measured IC50 value.
Data returned: 270

Data request: Recall and state the measured IC50 for CO[C@@H]1[C@@H](n2cc(-c3cc(F)cc(Cl)c3)nn2)[C@@H](O)[C@@H](CO)O[C@H]1C(=O)N(c1cc(Br)cc(C#N)c1)[C@H]1CCCC[C@@H]1O .
Data returned: 318

Data request: Please report IC50 for the following compound: CO[C@@H]1[C@@H](n2cc(-c3cc(F)c(F)c(F)c3)nn2)[C@@H](O)[C@@H](CO)O[C@H]1C(=O)N(c1cc(Cl)ccc1F)[C@H]1CCCC[C@@H]1O
Data returned: 136
